FYI, the data here is from ChEMBL document CHEMBL4118142.

molecular target: Acid-sensing ion channel 1 (Rattus norvegicus); experiment: Inhibition of ASIC1 in Sprague-Dawley rat articular chondrocytes assessed as decrease in acid-induced intracellular calcium level by Fluo-3AM dye based laser scanning confocal microscopy; format: cell-based
measure name: IC50 (µM)
Numbers only here, please. The scale is µM.

### Prompt State its IC50 on Acid-sensing ion channel 1 (Rattus norvegicus): N=C(N)NC(=O)c1nc(Cl)c(N)nc1N [AMILORIDE]
### Response 30.2

----------
Measured inhibition, listed per entry for reference.
biological target: Acid-sensing ion channel 1 (Rattus norvegicus) (UniProt P55926); test: Inhibition of ASIC1a in rat articular chondrocytes assessed as decrease in acid-induced intracellular calcium level at 25 uM pretreated with compound followed by acid medium stimulation in presence of voltage gated calcium channel inhibitor nimodipine after 24 hrs by Fluo-3AM dye based laser scanning confocal microscopy relative to control; format: cell-based
Sequence (P55926 whole entry): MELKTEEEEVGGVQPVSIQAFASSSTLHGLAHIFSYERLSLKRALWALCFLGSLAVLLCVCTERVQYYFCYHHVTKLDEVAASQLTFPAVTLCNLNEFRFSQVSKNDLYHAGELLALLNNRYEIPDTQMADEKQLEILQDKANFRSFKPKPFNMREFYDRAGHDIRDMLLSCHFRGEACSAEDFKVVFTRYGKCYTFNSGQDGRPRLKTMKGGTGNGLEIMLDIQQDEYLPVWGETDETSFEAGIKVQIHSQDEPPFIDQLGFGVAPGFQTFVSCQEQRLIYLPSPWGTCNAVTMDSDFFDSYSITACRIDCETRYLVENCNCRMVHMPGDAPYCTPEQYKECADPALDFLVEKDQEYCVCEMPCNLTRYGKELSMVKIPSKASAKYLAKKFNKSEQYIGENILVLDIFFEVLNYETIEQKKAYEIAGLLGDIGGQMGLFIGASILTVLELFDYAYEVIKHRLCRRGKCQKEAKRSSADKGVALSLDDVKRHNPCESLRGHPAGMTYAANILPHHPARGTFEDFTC
Numbers only here, please. The scale is %.

Example entries and their recorded answers appear below.
### Prompt What inhibition value was documented for this compound, N=C(NN)c1ccc2cc(/C=C/c3ccccc3)ccc2c1 ?
### Response 33.4

### Prompt What inhibition value was documented for this compound, N=C(NN)c1ccc2cc(/C=C/c3cccc(Cl)c3)ccc2c1 ?
### Response 59.5

### Prompt What inhibition value was documented for this compound, COc1ccc(/C=C/c2ccc3cc(C(=N)NN)ccc3c2)cc1 ?
### Response 68.9

In the following, a different compound is considered.
### Prompt What inhibition value was documented for this compound, N=C(NN)c1ccc2cc(/C=C/c3ccccc3F)ccc2c1 ?
### Response 52.1

----------
molecular target: Acid-sensing ion channel 1 (Rattus norvegicus, UniProt P55926); test: Inhibition of ASIC1a in rat dorsal root ganglion neurons assessed as reduction in peak current preincubated for 120 secs followed by acid medium stimulation at pH 5.5 for 3 secs by automated patch clamp electrophysiology assay
measure name: IC50 (nM)
Numbers only here, please. The scale is nM.

### Prompt State its IC50 on Acid-sensing ion channel 1 (Rattus norvegicus, UniProt P55926): CC(C)C1c2cc(C3CC3c3ccc4cc(C(=N)N)ccc4c3)ccc2CCN1C (stereo unspecified)
### Response 2000
